# System: NCI-H196 complex spheroids with HUVEC/MSC, growth % T/C
# Assay method text: Anticancer human tumor NCI-H196 cell line growth inhibition [Asc];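 further: spheroids exposed to compound for 7 days before measurement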
# Assay setup: curve of first compound; second compound 0.0316 µM
pIC50: −log10 of the molar value.
The entries below come with measured pIC50 values attached.
Property: pIC50

INSERT INTO assay_data (molecule, property, assay_value) VALUES
  ('C#Cc1c(F)ccc2cc(O)cc(-c3ncc4c(N5CC6CCC(C5)N6)nc(OCC56CCCN5CC(F)C6)nc4c3F)c12 (configuration not stated) + CNC(C)C(=O)NC1CN(S(=O)(=O)c2cccc(S(=O)(=O)N3CCC4CCC(C(=O)NC(c5ccccc5)c5ccccc5)N4C(=O)C(NC(=O)C(C)NC)C3)c2)CCC2CCC(C(=O)NC(c3ccccc3)c3ccccc3)N2C1=O', 'pIC50', '> 7.50'),
  ('NC1CCC(NC2CC2c2ccccc2)CC1 (configuration not stated) + CNC(C)C(=O)NC1CN(S(=O)(=O)c2cccc(S(=O)(=O)N3CCC4CCC(C(=O)NC(c5ccccc5)c5ccccc5)N4C(=O)C(NC(=O)C(C)NC)C3)c2)CCC2CCC(C(=O)NC(c3ccccc3)c3ccccc3)N2C1=O', 'pIC50', '> 9.50');

###

Quick reference for pIC50 among some compounds
# Tested on: NCI-H196 complex spheroids with HUVEC/MSC, growth % T/C
# Assay method text: Anticancer human tumor NCI-H196 cell line growth inhibition [Asc];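 further: spheroids exposed to compound for 7 days before measurement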
# Assay setup: curve of first compound; second compound 0.0316 µM
pIC50: −log10 of the molar value.
Property: pIC50

INSERT INTO results (compound, property, assay_value) VALUES
  ('COc1c(OCCCN2CCOCC2)ccc2c3n(c(=NC(=O)c4cnc(N)nc4)nc12)CCN3 + CNC(C)C(=O)NC1CN(S(=O)(=O)c2cccc(S(=O)(=O)N3CCC4CCC(C(=O)NC(c5ccccc5)c5ccccc5)N4C(=O)C(NC(=O)C(C)NC)C3)c2)CCC2CCC(C(=O)NC(c3ccccc3)c3ccccc3)N2C1=O', 'pIC50', '> 8.50'),
  ('C=C(F)C(=O)N1CCN(c2nc(OCC3CCCN3C)nc3c2CCN(c2cccc4cccc(Cl)c24)C3)CC1CC#N (configuration not stated) + CNC(C)C(=O)NC1CN(S(=O)(=O)c2cccc(S(=O)(=O)N3CCC4CCC(C(=O)NC(c5ccccc5)c5ccccc5)N4C(=O)C(NC(=O)C(C)NC)C3)c2)CCC2CCC(C(=O)NC(c3ccccc3)c3ccccc3)N2C1=O', 'pIC50', '> 7.50'),
  ('NC(=O)C(=Cn1cnc(-c2cc(C(F)(F)F)cc(C(F)(F)F)c2)n1)c1cncnc1 + CNC(C)C(=O)NC1CN(S(=O)(=O)c2cccc(S(=O)(=O)N3CCC4CCC(C(=O)NC(c5ccccc5)c5ccccc5)N4C(=O)C(NC(=O)C(C)NC)C3)c2)CCC2CCC(C(=O)NC(c3ccccc3)c3ccccc3)N2C1=O', 'pIC50', '> 9.02'),
  ('O=C(c1ccc(F)c(F)c1Nc1ccc(I)cc1F)N1CC(O)([C@@H]2CCCCN2)C1 + CNC(C)C(=O)NC1CN(S(=O)(=O)c2cccc(S(=O)(=O)N3CCC4CCC(C(=O)NC(c5ccccc5)c5ccccc5)N4C(=O)C(NC(=O)C(C)NC)C3)c2)CCC2CCC(C(=O)NC(c3ccccc3)c3ccccc3)N2C1=O', 'pIC50', '> 8.50'),
  ('CCN1CCN(Cc2ccc(Nc3ncc(F)c(-c4cc(F)c5nc(C)n(C(C)C)c5c4)n3)nc2)CC1 + CNC(C)C(=O)NC1CN(S(=O)(=O)c2cccc(S(=O)(=O)N3CCC4CCC(C(=O)NC(c5ccccc5)c5ccccc5)N4C(=O)C(NC(=O)C(C)NC)C3)c2)CCC2CCC(C(=O)NC(c3ccccc3)c3ccccc3)N2C1=O', 'pIC50', '> 8.50'),
  ('Cc1nc(N2CCC3(CC2)COC(C)C3N)c(CO)nc1Sc1ccnc(N)c1Cl (configuration not stated) + CNC(C)C(=O)NC1CN(S(=O)(=O)c2cccc(S(=O)(=O)N3CCC4CCC(C(=O)NC(c5ccccc5)c5ccccc5)N4C(=O)C(NC(=O)C(C)NC)C3)c2)CCC2CCC(C(=O)NC(c3ccccc3)c3ccccc3)N2C1=O', 'pIC50', '> 8.02'),
  ('C=CC(=O)N1CCN(c2nc(=O)n(-c3c(C)ccnc3C(C)C)c3nc(-c4c(O)cccc4F)c(F)cc23)C(C)C1 (configuration not stated) + CNC(C)C(=O)NC1CN(S(=O)(=O)c2cccc(S(=O)(=O)N3CCC4CCC(C(=O)NC(c5ccccc5)c5ccccc5)N4C(=O)C(NC(=O)C(C)NC)C3)c2)CCC2CCC(C(=O)NC(c3ccccc3)c3ccccc3)N2C1=O', 'pIC50', '> 7.50');
